Provide the reported Population Hoechst High Intensity Objects (%) of each item.
system: HEK-293T; assay: Multiplex assay against HEK293T; format: toxicity, cell-based; conditions: human, 24 h, 10 µM, compound concentration 10 uM, replicate 1
Report only the number, with the unit % understood.

Looking up "Oc1c(CN2CCN(c3ccccn3)CC2)cc(Cl)c2cccnc12" , I see its Population Hoechst High Intensity Objects (%) listed as 13

Documented Population Hoechst High Intensity Objects (%) of "CN1CCN(c2nc3cc(C(F)(F)F)ccc3n3cccc23)CC1.O=C(O)/C=C\C(=O)O.O=C(O)/C=C\C(=O)O" : 9

// field: Population Hoechst High Intensity Objects (%); key: "C[C@H]1[C@H]2CC[C@H]3[C@@H]4CC=C5C[C@@H](N(C)C)CC[C@]5(C)[C@H]4CC[C@]23CN1C" ; value = 6

The molecule identified as "CC[C@H]1OC(=O)[C@H](C)[C@@H](O[C@H]2C[C@@](C)(OC)[C@@H](O)[C@H](C)O2)[C@H](C)[C@@H](O[C@@H]2O[C@H](C)C[C@H](N(C)C)[C@H]2O)[C@@]2(C)CC(C)=C(O2)[C@H](C)[C@@H](O)[C@]1(C)O" registered its Population Hoechst High Intensity Objects (%) at 11
